# target: Mouse Serum Albumin (mouse) (UniProt P07724)
# assay.details: BLI (Octet Red), MSA on sensor tips, VH domain in solution, 1:1 fit

binder	unit.name	koff
VH-1C5 (protein) VH: QVQLQQSGPGLVKPSQTLSLTCAISGDSVSSNSAAWNWIRQSPSRGLEWLGRTYYRSKWYNDYAVSVKSRITINPDTSKNQFSLQLNSVTPEDTAVYYCARTPSTGTLDCWGRGTLVTVSSSASGAGS	s⁻¹	5.42e-05
VH-4D6 (protein) VH: EVQLVQSGAEVKKPGESLKISCKGSGYSFTSYWIGWVRQMPGKGLEWMGIIYPGDSDTRYSPSFQGQVTISADKSISTAYLQWSSLKASDTAMYYCARLDCSGGSCYYYYYGMDVWGQGTTVTVSSSASGAGS	s⁻¹	0.000105
VH-3B11 (protein) VH: EVQLVQSGAEVKKPGESLKISCKGSGYSFTSYWIGWVRQMPGKGLEWMGIVYPGDSDTRYSPSFQGQVTISAGKSISTAYLQWSSLKASDTAMYYCARPSMGATTWISAFDIWGQGTTVTVSSSASGAGS	s⁻¹	7.88e-05
VH-3C2 (protein) VH: QVQLQQSGPGLVKPSQTLSLTCAISGDSVSSKSAAWNWIRQSPSRGLEWLGRTYYRSKWYNDYVVSLRSRITVSPDTSKNQFSLQLNSVTPEDTAMYYCARTRGHIDLWGRGTLVTVSSSASGAGS	s⁻¹	0.000218
VH-3E11 (protein) VH: QVQLQQSGPGLVKPSQTLSLTCAISGDSVSGNSAAWNWIRQSPSRGLEWLGRTYYRSKWYIGYAASLQSRLAINADTSKNQLSLRLSSVTPEDTAVYYCVGRHYSGHSGAFDTWGHGTMVTVSSSASGAGS	s⁻¹	0.000226

Data origin: patent US20140186365A1
